Molecular target: Cytochrome P450 1A2 (Homo sapiens)
Sequence (P05177 whole entry): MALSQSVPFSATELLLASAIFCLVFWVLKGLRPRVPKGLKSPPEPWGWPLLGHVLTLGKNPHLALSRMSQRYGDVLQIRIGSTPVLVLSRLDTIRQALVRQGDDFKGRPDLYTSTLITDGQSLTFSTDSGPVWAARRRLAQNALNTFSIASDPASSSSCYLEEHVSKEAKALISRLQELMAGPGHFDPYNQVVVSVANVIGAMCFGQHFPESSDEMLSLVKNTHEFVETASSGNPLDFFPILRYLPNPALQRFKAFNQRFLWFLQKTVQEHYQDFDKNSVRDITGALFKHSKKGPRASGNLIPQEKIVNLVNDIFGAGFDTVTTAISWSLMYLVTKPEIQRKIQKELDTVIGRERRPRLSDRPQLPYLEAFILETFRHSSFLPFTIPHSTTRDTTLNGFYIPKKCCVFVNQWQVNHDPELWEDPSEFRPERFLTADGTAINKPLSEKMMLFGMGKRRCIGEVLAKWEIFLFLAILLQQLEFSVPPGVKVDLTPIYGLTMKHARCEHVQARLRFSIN

{"chemical.smiles": "Cc1c(CC(=O)O)c2cccnc2n1Cc1ccc(S(C)(=O)=O)cc1C(F)(F)F", "IC50": "> 100 µM"}

###

molecular target: Prostaglandin E2 receptor EP3 subtype (Homo sapiens, UniProt P43115)
Sequence (P43115 whole entry): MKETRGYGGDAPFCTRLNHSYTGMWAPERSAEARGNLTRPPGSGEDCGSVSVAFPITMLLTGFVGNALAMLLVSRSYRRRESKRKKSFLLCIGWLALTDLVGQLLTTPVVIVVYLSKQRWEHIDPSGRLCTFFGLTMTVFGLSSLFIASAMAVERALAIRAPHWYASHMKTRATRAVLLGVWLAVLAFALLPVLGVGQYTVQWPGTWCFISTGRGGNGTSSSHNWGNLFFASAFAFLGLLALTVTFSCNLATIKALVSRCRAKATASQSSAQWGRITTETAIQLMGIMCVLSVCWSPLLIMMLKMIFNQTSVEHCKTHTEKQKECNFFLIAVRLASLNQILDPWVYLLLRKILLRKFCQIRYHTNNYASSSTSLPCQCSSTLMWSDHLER

{"compound": "Cc1c(CC(=O)O)c2cccnc2n1Cc1ccc(S(C)(=O)=O)cc1C(F)(F)F [FEVIPIPRANT]", "IC50": "> 10 µM"}

###

target: Prostaglandin D2 receptor 2 (Homo sapiens, UniProt Q9Y5Y4); test: Antagonist activity at DP2 receptor in CD4-positive human TH2 cells assessed as inhibition of DK-PGD2-induced IL-13 production after 6 to 8 hrs
Sequence (Q9Y5Y4 whole entry): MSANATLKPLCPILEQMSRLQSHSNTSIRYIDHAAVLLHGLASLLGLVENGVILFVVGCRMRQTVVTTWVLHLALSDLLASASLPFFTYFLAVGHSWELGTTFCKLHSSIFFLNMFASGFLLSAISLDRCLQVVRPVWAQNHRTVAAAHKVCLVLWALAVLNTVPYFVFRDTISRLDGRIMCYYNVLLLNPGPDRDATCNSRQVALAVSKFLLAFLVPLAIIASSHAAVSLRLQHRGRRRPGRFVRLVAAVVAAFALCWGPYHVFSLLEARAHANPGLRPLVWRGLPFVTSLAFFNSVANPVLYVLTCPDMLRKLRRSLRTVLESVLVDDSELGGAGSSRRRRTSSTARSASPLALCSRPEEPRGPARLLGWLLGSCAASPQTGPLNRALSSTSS
Each record here notes measured IC50.
attribute.measured: IC50 (nM)

{"molecule": "Cc1c(CC(=O)O)c2cccnc2n1Cc1ccc(S(C)(=O)=O)cc1C(F)(F)F [FEVIPIPRANT]", "result.value": 1.4}
{"molecule": "Cc1c(CC(=O)O)c2cccnc2n1Cc1ccc(S(C)(=O)=O)cc1 [QAV680]", "result.value": 25}

###

target: Cytochrome P450 2D6 (Homo sapiens, UniProt P10635)
Sequence (P10635 whole entry): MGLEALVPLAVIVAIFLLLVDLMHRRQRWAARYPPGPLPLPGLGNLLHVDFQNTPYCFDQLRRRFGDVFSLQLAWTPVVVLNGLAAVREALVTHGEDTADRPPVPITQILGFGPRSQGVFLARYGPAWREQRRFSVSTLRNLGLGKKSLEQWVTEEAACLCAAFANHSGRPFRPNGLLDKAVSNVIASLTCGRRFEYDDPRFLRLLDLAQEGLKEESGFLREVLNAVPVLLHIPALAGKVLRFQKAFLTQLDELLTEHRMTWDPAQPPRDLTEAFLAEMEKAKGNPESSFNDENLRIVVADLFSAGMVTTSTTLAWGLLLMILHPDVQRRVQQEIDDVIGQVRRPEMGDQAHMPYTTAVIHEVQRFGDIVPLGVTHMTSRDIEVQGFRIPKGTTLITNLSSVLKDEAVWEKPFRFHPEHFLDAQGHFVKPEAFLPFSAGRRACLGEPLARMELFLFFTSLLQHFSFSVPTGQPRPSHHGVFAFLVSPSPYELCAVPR
pIC50: −log10 of the molar value.

{"chemical.smiles": "Cc1c(CC(=O)O)c2cccnc2n1Cc1ccc(S(C)(=O)=O)cc1C(F)(F)F", "pIC50": "< 4.00"}

###

molecular target: Cytochrome P450 2C9 (Homo sapiens, UniProt P11712)
Sequence (P11712 whole entry): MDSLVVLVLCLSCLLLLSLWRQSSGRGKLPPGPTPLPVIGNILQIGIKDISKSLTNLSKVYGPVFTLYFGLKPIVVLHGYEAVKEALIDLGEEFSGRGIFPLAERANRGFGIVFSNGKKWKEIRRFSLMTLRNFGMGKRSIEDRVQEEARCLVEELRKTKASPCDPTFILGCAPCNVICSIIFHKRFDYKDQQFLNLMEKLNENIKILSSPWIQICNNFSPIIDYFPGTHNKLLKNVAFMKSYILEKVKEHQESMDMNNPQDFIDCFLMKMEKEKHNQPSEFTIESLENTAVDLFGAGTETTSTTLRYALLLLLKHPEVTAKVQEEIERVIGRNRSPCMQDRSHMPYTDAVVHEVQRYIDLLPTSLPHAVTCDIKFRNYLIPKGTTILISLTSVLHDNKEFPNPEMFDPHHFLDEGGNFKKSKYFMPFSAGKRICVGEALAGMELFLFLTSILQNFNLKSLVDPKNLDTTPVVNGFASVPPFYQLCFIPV
attribute.measured: IC50

{"chemical.smiles": "Cc1c(CC(=O)O)c2cccnc2n1Cc1ccc(S(C)(=O)=O)cc1C(F)(F)F", "experimental.target": "Cytochrome P450 2C9 (Homo sapiens, UniProt P11712)", "attribute.measured": "IC50", "result.value": "> 100 µM"}

###

molecular target: Prostaglandin E2 receptor EP4 subtype (Homo sapiens, UniProt P35408)
Sequence (P35408 whole entry): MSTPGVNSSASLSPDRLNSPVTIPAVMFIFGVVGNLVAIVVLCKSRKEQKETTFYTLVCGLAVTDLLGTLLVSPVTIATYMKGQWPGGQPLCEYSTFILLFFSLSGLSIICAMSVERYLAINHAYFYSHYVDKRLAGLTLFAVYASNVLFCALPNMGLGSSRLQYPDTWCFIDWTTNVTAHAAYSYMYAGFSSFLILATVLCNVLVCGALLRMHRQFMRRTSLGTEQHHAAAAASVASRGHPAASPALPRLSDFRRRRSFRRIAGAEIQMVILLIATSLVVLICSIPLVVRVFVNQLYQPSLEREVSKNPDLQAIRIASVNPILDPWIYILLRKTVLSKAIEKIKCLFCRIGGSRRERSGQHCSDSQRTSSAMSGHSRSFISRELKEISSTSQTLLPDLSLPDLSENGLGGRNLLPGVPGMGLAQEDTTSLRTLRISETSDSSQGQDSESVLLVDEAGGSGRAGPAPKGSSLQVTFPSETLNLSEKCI
pIC50: −log10 of the molar value.

{"compound": "Cc1c(CC(=O)O)c2cccnc2n1Cc1ccc(S(C)(=O)=O)cc1C(F)(F)F [FEVIPIPRANT]", "experimental.target": "Prostaglandin E2 receptor EP4 subtype (Homo sapiens, UniProt P35408)", "pIC50": "< 5.00"}

###

target: Prostaglandin D2 receptor 2 (Homo sapiens); test: Displacement of [3H]PGD2 from human DP2 receptor expressed in CHO cell membranes after 60 mins by scintillation proximity assay
pKi: −log10 of the molar value.
Each entry gets not met if its pKi stays under 7, and met if its pKi is 7 or above.

{"chemical.smiles": "CCS(=O)(=O)c1ccc(Cn2c(C)c(CC(=O)O)c3cccnc32)c(C(F)(F)F)c1", "group.label": "met"}
{"chemical.smiles": "Cc1c(CC(=O)O)c2cc(Br)cnc2n1Cc1ccc(S(C)(=O)=O)cc1", "group.label": "not met"}
{"chemical.smiles": "CCS(=O)(=O)c1ccc(Cn2c(C)c(CC(=O)O)c3cccnc32)c(Cl)c1", "group.label": "met"}
{"chemical.smiles": "Cc1c(CC(=O)O)c2cccnc2n1Cc1ccc(S(C)(=O)=O)c(C(F)(F)F)c1", "group.label": "met"}
{"chemical.smiles": "Cc1cnc2c(c1)c(CC(=O)O)c(C)n2Cc1ccc(S(C)(=O)=O)cc1", "group.label": "not met"}
{"chemical.smiles": "Cc1c(CC(=O)O)c2ccccc2n1Cc1ccc(S(C)(=O)=O)cc1", "group.label": "met"}
